# credit: PubChem BioAssay AID1159580

- protocol: chemical genetic growth profiling, strain panel (AID 1159580);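 note: tested at 20 µM; growth read once vehicle control cultures reached saturation at 30 °C; 1 = growth at the plate median or of vehicle wells; lower values mean less growth of the strain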
- condition.description: S. cerevisiae deletion strains, growth OD, locus YER015W, strain faa2, active compounds read low
Out of some 5,500 compounds screened, about 2,000 (36%) were called active. Inconclusive results (about 18%) are left out. The list shows a part of the results.
Below, each entry is listed with its recorded normalized growth.
API doc: respond with a numeric literal and nothing else, no unit.

Sample records with normalized growth:
[[record]]
molecule = "COc1cc(C/C=C/c2ccccc2)c(OC)cc1O"
observable = "normalized growth"
numeric_result = 0.935

[[record]]
molecule = "CC[N+](C)(C)c1cccc(O)c1"
observable = "normalized growth"
numeric_result = 0.999

[[record]]
molecule = "CC(C)(C)NC[C@H](O)c1ccc(O)c(CO)c1"
observable = "normalized growth"
numeric_result = 1.02

[[record]]
molecule = "CC1=CCCC2C1(C)CCC(C)C2(C)CC/C(C)=C/C[n+]1cn(C)c2c(N)ncnc21 (centres undefined)"
observable = "normalized growth"
numeric_result = 0.963

[[record]]
molecule = "NC(=O)c1cccnc1"
observable = "normalized growth"
numeric_result = 0.992

[[record]]
molecule = "CC(C)c1ccc2c(c1)CCC1[C@](C)(CN)CCC[C@]21C (some centres undefined)"
observable = "normalized growth"
numeric_result = 0.951

[[record]]
molecule = "COC(=O)c1c(C)c2c(c(C)c1O)OC(=O)c1c(C)c(Cl)c(O)c(Cl)c1O2"
observable = "normalized growth"
numeric_result = 0.977

[[record]]
molecule = "Oc1cccc(O)c1"
observable = "normalized growth"
numeric_result = 0.981


// CC(=O)OCC(=O)[C@@]1(O)[C@H](C)CC2C3CCC4=CC(=O)C=C[C@]4(C)[C@@]3(F)[C@@H](O)C[C@@]21C (some centres undefined) : normalized growth value = 0.985

Looking up `Cc1nc(N)cc(C[n+]2csc(CCO)c2C)n1` , I see its normalized growth listed as 0.975

For reference, reported normalized growth for `O=C(NCO)c1cccnc1` stands at 1

Lab book: normalized growth of `Nc1ccc(S(=O)(=O)NC(=O)c2ccccc2)cc1` noted as 0.998

Sample CC(=O)O[C@H]1CC[C@@]2(C)C(C[C@@H](OC(C)=O)[C@@]3(C)C4=CC(=O)O[C@@H](c5ccoc5)[C@]4(C)CCC23)C1(C)C (some centres undefined) ; normalized growth observed: 0.991

Per the record, CC(C)c1ccc2c(c1)CCC1C(C)(C(N)=O)CCCC21C (centres undefined) has normalized growth of 0.982

Recorded result, CC(C)(C)NCC(O)c1ccc(O)c(CO)c1 (centres undefined) , normalized growth: 1.02

Reported normalized growth of `CN[C@@H]1[C@H](O)[C@H](NC)[C@H]2O[C@@]3(O)C(=O)C[C@@H](C)O[C@H]3O[C@@H]2[C@H]1O` : 1
